System: Nannizzia gypsea
Protocol: Antifungal activity against Microsporum gypseum C 115 after 48 hrs
Type: functional
Measurement Conditions: C 115, 48 h

Compound Structure String: C[C@@H]1[C@H](O)[C@@H](C)/C=C/C=C/C=C/C=C/C=C/C=C/C=C/[C@H](O[C@@H]2O[C@H](C)[C@@H](O)[C@H](N)[C@@H]2O)C[C@@H]2O[C@](O)(C[C@@H](O)C[C@@H](O)[C@H](O)CC[C@@H](O)C[C@@H](O)CC(=O)O[C@H]1C)C[C@H](O)[C@H]2C(=O)O
Quantity Unit: µg/mL
Qualifier: =
MIC: 0.125
--
Compound Structure String: COc1nn(CCOCCN2CCN(C/C=C/c3ccccc3)CC2)c2ccc([N+](=O)[O-])cc12
Quantity Unit: µg/mL
Qualifier: =
MIC: 62.5
--
Compound Structure String: C=CCNC(=S)N/N=C/c1ccc2c(c1)[n+]([O-])c(C#N)c(N)[n+]2[O-]
Quantity Unit: µg/mL
Qualifier: >
MIC: 250
--
Compound Structure String: CCOC(=O)c1c(-c2ccccc2)[n+]([O-])c2ccc(CN3CCN(C/C=C/c4ccccc4)CC3)cc2[n+]1[O-]
Quantity Unit: µg/mL
Qualifier: =
MIC: 250
--
Compound Structure String: Cc1c(C(=O)Nc2ccccc2)[n+]([O-])c2cc(CN3CCN(C/C=C/c4ccccc4)CC3)ccc2[n+]1[O-]
Quantity Unit: µg/mL
Qualifier: =
MIC: 125
--
Compound Structure String: C=CCNC(=S)N/N=C/c1ccc2no[n+]([O-])c2c1
Quantity Unit: µg/mL
Qualifier: >
MIC: 250
--
Compound Structure String: O=[N+]([O-])c1ccc2c(c1)c(OCc1ccccc1)nn2CCCCCN1CCN(C/C=C/c2ccccc2)CC1
Quantity Unit: µg/mL
Qualifier: =
MIC: 62.5

---

Tested on: Trichophyton rubrum
Protocol: Antifungal activity against Trichophyton rubrum C 113 after 48 hrs
Type: functional
Measurement Conditions: C 113, 48 h
# reported MFC; entries follow

Compound Structure String: N#Cc1c2ccccc2[n+]([O-])n1C/C=C/c1ccccc1
Qualifier: =
MFC / µg/mL: 125
--
Compound Structure String: O=[N+]([O-])c1ccc2c(c1)c(OCc1ccccc1)nn2CCOCCN1CCN(C/C=C/c2ccccc2)CC1
Qualifier: >
MFC / µg/mL: 250
--
Compound Structure String: Cc1c(C(=O)Nc2ccccc2)[n+]([O-])c2cc(CN3CCN(C/C=C/c4ccccc4)CC3)ccc2[n+]1[O-]
Qualifier: >
MFC / µg/mL: 250
--
Compound Structure String: CCOC(=O)c1c(-c2ccccc2)[n+]([O-])c2ccc(CN3CCN(C/C=C/c4ccccc4)CC3)cc2[n+]1[O-]
Qualifier: =
MFC / µg/mL: 250
--
Compound Structure String: O=[N+]([O-])c1ccc2c(c1)c(OCc1ccccc1)nn2CCCCCN1CCN(C/C=C/c2ccccc2)CC1
Qualifier: =
MFC / µg/mL: 125
--
Compound Structure String: C=CCNC(=S)N/N=C/c1ccc2c(c1)=[N+]([O-])C(C)(C)[N+]=2[O-]
Qualifier: =
MFC / µg/mL: 250
--
Compound Structure String: COc1nn(CCOCCN2CCN(C/C=C/c3ccccc3)CC2)c2ccc([N+](=O)[O-])cc12
Qualifier: =
MFC / µg/mL: 125
--
Compound Structure String: C=CCNC(=S)N/N=C/c1ccc2c(c1)[n+]([O-])c(C(=O)Nc1ccccc1)c(C)[n+]2[O-]
Qualifier: =
MFC / µg/mL: 250
